Experiment: in vivo
Parameters: species or system SD rats
Details: male, SD, rat, po, 2 mg/kg
Below is a list of entries, each paired with its recorded Tmax value.
State the value, then name its unit.

[[record]]
molecule = "CCOc1cncc(-c2ccc(NC(=O)C3(c4ccnc(NS(=O)(=O)C5CC5)n4)CCC(=C(F)CO)CC3)nc2)n1 (stereo not drawn)"
test_readout = "Tmax"
measured_value = "1.33 h"

[[record]]
molecule = "CCOc1cncc(-c2ccc(NC(=O)C3(c4ccnc(NS(=O)(=O)C5CC5)n4)CCC(=CCCO)CC3)nc2)n1 (stereo not drawn)"
test_readout = "Tmax"
measured_value = "1.17 h"

[[record]]
molecule = "CCOc1cncc(-c2ccc(NC(=O)C3(c4ccnc(NS(=O)(=O)C5CC5)n4)CCC(=C(C)CO)CC3)nc2)n1 (stereo not drawn)"
test_readout = "Tmax"
measured_value = "0.25 h"

[[record]]
molecule = "CCOc1cncc(-c2ccc(NC(=O)C3(c4ccnc(NS(=O)(=O)C5CC5)n4)CCC(=C(C)C4COC4)CC3)nc2)n1 (stereo not drawn)"
test_readout = "Tmax"
measured_value = "4 h"

[[record]]
molecule = "CCOc1cncc(-c2ccc(NC(=O)C3(c4ccnc(NS(=O)(=O)C5CC5)n4)CCC(=C(F)CC4COC4)CC3)nc2)n1 (stereo not drawn)"
test_readout = "Tmax"
measured_value = "1.83 h"


Next, consider the following molecule.
Query: Tmax; subject: CCOc1cncc(-c2ccc(NC(=O)C3(c4ccnc(NS(=O)(=O)C5CC5)n4)CCC(=C(F)C4COC4)CC3)nc2)n1 (stereo not drawn)
0.25 h

----------
Target sequence: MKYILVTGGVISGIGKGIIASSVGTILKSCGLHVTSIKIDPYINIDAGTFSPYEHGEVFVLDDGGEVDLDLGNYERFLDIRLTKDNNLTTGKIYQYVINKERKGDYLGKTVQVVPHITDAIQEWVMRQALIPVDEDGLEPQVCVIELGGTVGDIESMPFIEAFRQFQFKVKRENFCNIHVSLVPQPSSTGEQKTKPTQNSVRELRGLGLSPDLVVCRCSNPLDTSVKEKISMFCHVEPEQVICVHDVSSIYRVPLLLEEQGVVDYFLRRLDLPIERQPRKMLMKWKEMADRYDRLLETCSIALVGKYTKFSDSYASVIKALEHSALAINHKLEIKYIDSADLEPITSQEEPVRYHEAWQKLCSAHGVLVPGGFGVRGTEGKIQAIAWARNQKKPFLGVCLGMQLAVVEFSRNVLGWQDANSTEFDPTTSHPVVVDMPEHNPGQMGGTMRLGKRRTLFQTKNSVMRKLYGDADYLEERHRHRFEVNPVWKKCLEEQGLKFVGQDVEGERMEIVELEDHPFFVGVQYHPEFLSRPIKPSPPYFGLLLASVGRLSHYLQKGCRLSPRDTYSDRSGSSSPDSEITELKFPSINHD
Below is a list of entries, each paired with its recorded IC50 value.

// below: answered compounds
[[record]]
compound = "CCOc1cncc(-c2ccc(NC(=O)C3(c4ccnc(NS(=O)(=O)C5CC5)n4)CCC(=C(F)CC(C)(C)O)CC3)nc2)n1 (stereo not drawn)"
test_readout = "IC50"
measured_value = "< 50 nM"

[[record]]
compound = "CCOc1cncc(-c2ccc(NC(=O)C3(c4ccnc(NS(=O)(=O)C5CC5)n4)CCC(=CCN4CCN(C)CC4)CC3)nc2)n1 (stereo not drawn)"
test_readout = "IC50"
measured_value = "< 50 nM"


Next, consider the following compound.
Query: IC50; subject: CCOc1cncc(-c2ccc(NC(=O)C3(c4ccnc(NS(=O)(=O)C5CC5)n4)CCC(=C(F)CC4COC4)CC3)nc2)n1 (stereo not drawn)
< 50 nM

----------
Test: in vivo
Parameters: species or system SD rats
Conditions: male, SD, rat, po, 3 mg/kg
Procedure: Instrumentation: SCIEX Triple Quad 6500+ triple quadrupole liquid chromatography-mass spectrometry system (LC-MS/MS), operating software is Analyst 1.7.2 (Applied Biosystems, USA); ExionLC liquid chromatography system; Microsoft Excel was used for data calculation and processing. Pharmacokinetic parameters were calculated using the statistical moment method with WinNonlin 8.2 software. Key kinetic parameters included Tmax, T1/2, Cmax, AUC0-24 h etc. […]
Below is a list of entries, each paired with its recorded AUC(0-t) value.
The reply should contain only the number, in ng·h/mL.

[[record]]
compound = "CCOc1cncc(-c2ccc(NC(=O)C3(c4ccnc(NS(=O)(=O)C5CC5)n4)CCC(=CCNC(C)=O)CC3)nc2)n1 (stereo not shown)"
measured_value = 137


Next, consider the following compound.
Query: AUC(0-t); subject: CCOc1cncc(-c2ccc(NC(=O)C3(c4ccnc(NS(=O)(=O)C5CC5)n4)CCC(=CCN4CC(OC)C4)CC3)nc2)n1 (stereo not shown)
46.7

----------
Below is a list of entries, each paired with its recorded Tmax value.
Assay: in vivo
Set-up: species or system SD rats
Settings: male, SD, rat, po, 3 mg/kg
The reply should contain only the number, in min.

// below: answered compounds
[[record]]
compound = "CCOc1cncc(-c2ccc(NC(=O)C3(c4cncc(NS(=O)(=O)C5CC5)n4)CCC(=C(F)F)CC3)nc2)n1 (stereo not shown)"
measured_value = 130

[[record]]
compound = "CCOc1cncc(-c2ccc(NC(=O)C3(c4ccnc(NS(=O)(=O)C5CC5)n4)CCC(=C(F)F)CC3)nc2)n1 (stereo not shown)"
measured_value = 49.8

[[record]]
compound = "CCOc1cncc(-c2ccc(NC(=O)C3(c4ccnc(NS(=O)(=O)C5CC5)n4)CCC(=CF)CC3)nc2)n1 (stereo not shown)"
measured_value = 200

[[record]]
compound = "C=CC(=O)N1CCC(C(=O)Nc2ccc(-c3cncc(OCC)n3)cn2)(c2ccnc(NS(=O)(=O)C3CC3)n2)CC1"
measured_value = 30

[[record]]
compound = "CCOc1cncc(-c2ccc(NC(=O)C3(c4ccnc(NS(=O)(=O)C5CC5)n4)CCC(=CCN4CC(OC)C4)CC3)nc2)n1 (stereo not shown)"
measured_value = 15


Query: Tmax; subject: CCOc1cncc(-c2ccc(NC(=O)C3(c4ccnc(NS(=O)(=O)C5CC5)n4)CCC(=CCC(C)(C)O)CC3)nc2)n1 (stereo not shown)
130

Query: Tmax; subject: CCOc1cncc(-c2ccc(NC(=O)C3(c4ccnc(NS(=O)(=O)C5CC5)n4)CCC(=CCNC(C)=O)CC3)nc2)n1 (stereo not shown)
15

----------
Assay: in vivo
Parameters: species or system SD rats
Conditions: male, SD, rat, po, 1.5 mg/kg
Test Readout: Tmax (h)
The reply should contain only the number, in h.

Query: Tmax; subject: CCOc1cncc(-c2ccc(NC(=O)C3(c4ccnc(NS(=O)(=O)C5CC5)n4)CCC(=C(F)C4CCOCC4)CC3)nc2)n1 (stereo not shown)
2

----------
Tested on: Jurkat cells
Experiment: Inhibition of Jurkat cell proliferation (CellTiter-Glo, 72 hours)
Format: cell-based
Settings: Homo sapiens; Jurkat cells, 72 hours, CellTiter-Glo; read-out: Jurkat (IC50)
pIC50: −log10 of the molar value.
Below is a list of entries, each paired with its recorded pIC50 value.

Param readout = pIC50; param system = Jurkat cells; param query = CCOc1cncc(-c2ccc(NC(=O)C3(c4cncc(NS(=O)(=O)C5CC5)n4)CCC(=C(F)F)CC3)nc2)n1 (stereo not shown) ; response: value
> 7.82

Param readout = pIC50; param system = Jurkat cells; param query = CCOc1cncc(-c2ccc(NC(=O)C3(c4ccnc(NS(=O)(=O)C5CC5)n4)CCC(=CCN)CC3)nc2)n1 (stereo not shown) ; response: value
> 7.00

Param readout = pIC50; param system = Jurkat cells; param query = CCOc1cncc(-c2ccc(NC(=O)C3(c4ccnc(NS(=O)(=O)C5CC5)n4)CCC(=CCOC)CC3)nc2)n1 (stereo not shown) [Compound 17] ; response: value
> 6.70

Param readout = pIC50; param system = Jurkat cells; param query = "CCOc1cncc(-c2ccc(NC(=O)C(=C3CCOCC3)c3ccnc(NS(=O)(=O)C4CC4)n3)nc2)n1" ; response: value
> 6.00

----------
Test system: Jurkat cells
Assay: Inhibition of Jurkat cell proliferation (CellTiter-Glo, 72 hours)
Assay type: cell-based
Conditions: Homo sapiens; Jurkat cells, 72 hours, CellTiter-Glo; read-out: Jurkat (IC50)
Below is a list of entries, each paired with its recorded IC50 value.

// below: answered compounds
[[record]]
compound = "CCOc1cncc(-c2ccc(NC(=O)C3(c4ccnc(NS(=O)(=O)C5CC5)n4)CCC(=CCC(C)(C)O)CC3)nc2)n1 (stereo not shown)"
measurement_target = "Jurkat cells"
measured_value = "< 15 nM"

[[record]]
compound = "CCOc1cncc(-c2ccc(NC(=O)C3(c4ccnc(NS(=O)(=O)C5CC5)n4)CC(=CF)C3)nc2)n1 (stereo not shown)"
measurement_target = "Jurkat cells"
measured_value = "< 200 nM"

[[record]]
compound = "CCOc1cncc(-c2ccc(NC(=O)C3(c4ccnc(NS(=O)(=O)C5CC5)n4)CCC(=CC(C)(C)O)CC3)nc2)n1 (stereo not shown)"
measurement_target = "Jurkat cells"
measured_value = "< 50 nM"

[[record]]
compound = "CCOc1cncc(-c2ccc(NC(=O)C3(c4ccnc(NS(=O)(=O)C5CC5)n4)CC(=CC(=O)OC)C3)nc2)n1 (stereo not shown)"
measurement_target = "Jurkat cells"
measured_value = "< 30 nM"

[[record]]
compound = "CCOc1cncc(-c2ccc(NC(=O)C3(c4ccnc(NS(=O)(=O)C5CC5)n4)CCC(=C(F)CO)CC3)nc2)n1 (stereo not shown)"
measurement_target = "Jurkat cells"
measured_value = "< 15 nM"


Query: IC50; subject: CCOc1cncc(-c2ccc(NC(=O)C3(c4ccnc(NS(=O)(=O)C5CC5)n4)CCC(=CCN4CCOCC4)CC3)nc2)n1 (stereo not shown)
< 15 nM

Query: IC50; subject: "CCOc1cncc(-c2ccc(NC(=O)C3(c4ccnc(NS(=O)(=O)C5CC5)n4)CCN(c4cccnc4)CC3)nc2)n1"
< 30 nM
